Source: PubChem BioAssay (NCATS)

- ASSAY_TEXT: qHTS for Inhibitors of the Functional Ribonucleoprotein Complex (vRNP) of Lassa (LASV) Arenavirus: Viability assay - alamar blue signal for LASV Primary Screen (AID 1347083); further: nearly all actives have a fitted effect of over 80% in size
- CONDITION_INFO: cell viability, alamar blue fluorescence (LASV minigenome counter-screen); series mostly up to 57.5 µM
Inconclusive results are not listed. Activity calls are given as the source filed them. The call rests on the fitted dose curve; tested in HEK293 reporter line.
REPORTED_ENDPOINT: activity change, negative = reduced viability

Consider the following illustrative entries.
1) FC(F)(F)C(F)(F)C(F)(F)C(F)(F)C(F)(F)C(F)(F)C(F)(F)C(F)(F)Br    inactive
2) CCCCNc1cc(C(=O)O)cc(S(N)(=O)=O)c1Oc1ccccc1    inactive
3) Nc1c(NC/C=C\COc2cc(CN3CCCCC3)ccn2)c(=O)c1=O    inactive
4) CC(=O)Nc1ccc(S(=O)(=O)Nc2ccc([N+](=O)[O-])cc2)cc1    inactive
5) CC(C)NCC(O)COc1ccc(COCCOC(C)C)cc1 (stereo unspecified)    inactive

Specify activity change, negative = reduced viability for CC(C)(C)NCC(O)COc1cccc2c1CCC(=O)N2 (stereo unspecified) and stop.
inactive

Answer with the recorded activity change, negative = reduced viability of O=C1c2ccccc2C(=O)C1c1ccc(Br)cc1 only.
inactive

Give me measured activity change, negative = reduced viability, please, for this compound: CC(=O)Oc1ccc(C(c2ccc(OC(C)=O)cc2)c2ccccn2)cc1
inactive

Retrieve activity change, negative = reduced viability measured for CCCN(CCC)C(=O)C(CCC(=O)OCCCN1CCN(CCOC(=O)Cc2c(C)n(C(=O)c3ccc(Cl)cc3)c3ccc(OC)cc23)CC1)NC(=O)c1ccccc1 (stereo unspecified) and print it.
inactive

Note down activity change, negative = reduced viability recorded for CCOCCOC(=O)/C=C/c1ccc(OC)cc1
inactive

Read the entry CC(=O)N1C[C@H](O)C[C@H]1C(=O)O and write its reported activity change, negative = reduced viability.
inactive

###

- ASSAY_TEXT: qHTS of pediatric cancer cell lines to identify multiple opportunities for drug repurposing: Confirmatory screen for A673 cells (AID 1347110);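 further: cells exposed to compound for 48 h before the viability read; nearly all actives have a fitted effect of over 65% in size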
- CONDITION_INFO: A673 Ewing sarcoma cell viability; series mostly up to 45.9 µM
- Procedure: Drug repurposing or repositioning has been offered as a strategy for drug development in oncology programs. […] [1] Shen, M et al. Quantitative high-throughput phenotypic screening of pediatric cancer cell lines identifies multiple opportunities for drug repurposing. […] Cells were assayed in growth media at a density of 500-1,000 cells/well. […] After a 15min incubation at room temperature, samples were analyzed for luminescence intensity using a ViewLux High-throughput CCD imager equipped with clear filters.
Results filed as inconclusive are left out. Calls of active or inactive are those of the source. Calls come from the whole dose curve; as a rule, active = well fitted cell-killing curve with a large enough effect; inconclusive = small, poorly fitted or top-dose-only effect; inactive = flat fitted curve, though single readings scatter.
Respond with a class label; see active, inactive

What outcome does the record of this test show for COc1ccc2c(C(=O)c3ccc(Cl)cc3)c(C)n(CC(=O)O)c2c1 ?
active

Check the results log: what was the call for CCc1ccc(C2CCNCC2)cc1 ?
inactive

Write down the call the test reported for this compound. Item: C[C@@H]1O[C@@H](O[C@@H]2C=C3CC[C@@H]4[C@H](CC[C@]5(C)[C@@H](c6ccc(=O)oc6)CC[C@]45O)[C@@]3(C)CC2)[C@H](O)[C@H](O)[C@H]1O
active

Can you look up the reported call for CCCCCCCCCCCC[N+](C)(C)CCOc1ccccc1 for me?
active

Can you look up the reported call for CC[n+]1c(-c2ccccc2)c2cc(N)ccc2c2ccc(N)cc21 for me?
active
